These data points were gathered from patent US9403835B2.

measured-property: melting point

Here's what some known entries look like.
Cc1nc2c3c(nn2c(C)c1C)CN(C(=O)c1ccccc1OCCN(C)C)C3
148 to 150 °C
Cc1nc2c3c(nn2c(C)c1Cl)CN(C(=O)c1ccccc1CN1CCC(O)(C(F)(F)F)CC1)C3
223 to 227 °C
CCOc1ccc(Br)cc1C(=O)N1Cc2nn3c(C)c(C)c(C)nc3c2C1
208 to 215 °C

// melting point lookup, key: `Cc1nc2c3c(nn2c(C)c1Cl)CN(C(=O)c1ccccc1CN1C[C@H]2CN(C)C[C@H]2C1)C3`
174 to 177 °C

# iterate: `Cc1nc2c3c(nn2c(C)c1Cl)CN(C(=O)c1ccccc1CN1CCCNCC1)C3`
185 to 192 °C

# iterate: `Cc1nc2c3c(nn2c(C)c1Cl)CN(C(=O)c1ccccc1CN1CCCN(C)CC1)C3`
138 to 141 °C

# iterate: `CC(C)Oc1ccccc1C(=O)N1Cc2nn3cc(Cl)cnc3c2C1`
160 to 161 °C

# iterate: `COc1c(F)cc(F)cc1C(=O)N1Cc2nn3c(C)c(Cl)c(C)nc3c2C1`
185 to 187 °C
